Cited source: paper PMC6173509

Target: steroid sulfatase (STS) (Homo sapiens)
Sequence (P08842 22-583): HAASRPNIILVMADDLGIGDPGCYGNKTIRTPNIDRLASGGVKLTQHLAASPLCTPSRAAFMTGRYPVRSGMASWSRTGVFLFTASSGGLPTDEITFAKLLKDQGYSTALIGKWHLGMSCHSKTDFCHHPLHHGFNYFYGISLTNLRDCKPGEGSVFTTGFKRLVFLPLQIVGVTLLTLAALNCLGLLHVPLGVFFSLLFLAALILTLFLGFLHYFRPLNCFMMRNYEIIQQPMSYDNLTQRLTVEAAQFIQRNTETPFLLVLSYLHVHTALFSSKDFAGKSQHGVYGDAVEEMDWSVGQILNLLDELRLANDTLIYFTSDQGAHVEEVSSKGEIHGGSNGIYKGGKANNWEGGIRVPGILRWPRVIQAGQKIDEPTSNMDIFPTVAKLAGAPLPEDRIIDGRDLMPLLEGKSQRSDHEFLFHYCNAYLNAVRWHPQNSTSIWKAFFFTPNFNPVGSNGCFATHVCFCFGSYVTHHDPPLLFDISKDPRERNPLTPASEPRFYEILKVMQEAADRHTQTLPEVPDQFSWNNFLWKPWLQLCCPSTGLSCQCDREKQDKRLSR
Assay: STS inhibition in placental microsomes
Assay type: biochemical
Parameters: a placental microsomal preparation from a sulfatase-positive human placenta from a normal term pregnancy; from tissue; host or cells: human placenta (microsomal preparation)
Details: 0.01 μM inhibitor; 20 μM E1S
Kindly state inhibition at 0.01 µM for each of the entries shown.
Expressed in %, but write only the number.

**Query** # get_value(readout='inhibition at 0.01 µM', item= CCCCCCCc1c(C)c2ccc(OS(N)(=O)=O)cc2oc1=O [compound 30, 3-Heptyl-4-methylcoumarin-7-O-sulfamate] )
**Result** 23

**Query** # get_value(readout='inhibition at 0.01 µM', item= CCCCCCCCCCc1c(C)c2ccc(OS(N)(=O)=O)cc2oc1=O [compound 33, 3-Decyl-4-methylcoumarin-7-O-sulfamate] )
**Result** 3

**Query** # get_value(readout='inhibition at 0.01 µM', item= CCCCCCCCCCCCc1cc(=O)oc2cc(OS(N)(=O)=O)ccc12 [compound 17, 4-Dodecylcoumarin-7-O-sulfamate] )
**Result** 17

====

Kindly state inhibition at 1 µM for each of the entries shown.
Target: steroid sulfatase (STS) (Homo sapiens, UniProt P08842)
Experiment: STS inhibition in intact MCF-7 breast cancer cells
Assay type: cell-based
Design: endogenous in cells; host or cells: MCF-7 breast cancer cells
Settings: MCF7, read-out: % Inhibition of STS Activity in Intact MCF-7 Breast Cancer Cells at 1 μM
Expressed in %, but write only the number.

**Query** Record NS(=O)(=O)Oc1ccc2c(Cc3ccccc3)cc(=O)oc2c1 [compound 23, 4-Benzylcoumarin-7-O-sulfamate] : what is its inhibition at 1 µM with steroid sulfatase (STS) (Homo sapiens, UniProt P08842)?
**Result** 70

**Query** Record CCCCCCCCc1cc(=O)oc2cc(OS(N)(=O)=O)ccc12 [compound 13, 4-Octylcoumarin-7-O-sulfamate] : what is its inhibition at 1 µM with steroid sulfatase (STS) (Homo sapiens, UniProt P08842)?
**Result** 97

**Query** Record CCCCCCc1cc(=O)oc2cc(OS(N)(=O)=O)ccc12 [compound 11, 4-Hexylcoumarin-7-O-sulfamate] : what is its inhibition at 1 µM with steroid sulfatase (STS) (Homo sapiens, UniProt P08842)?
**Result** 90

**Query** Record Cc1c(CCCc2ccccc2)c(=O)oc2cc(OS(N)(=O)=O)ccc12 : what is its inhibition at 1 µM with steroid sulfatase (STS) (Homo sapiens, UniProt P08842)?
**Result** 99

====

Target: steroid sulfatase (STS) (Homo sapiens)
Sequence (P08842 22-583): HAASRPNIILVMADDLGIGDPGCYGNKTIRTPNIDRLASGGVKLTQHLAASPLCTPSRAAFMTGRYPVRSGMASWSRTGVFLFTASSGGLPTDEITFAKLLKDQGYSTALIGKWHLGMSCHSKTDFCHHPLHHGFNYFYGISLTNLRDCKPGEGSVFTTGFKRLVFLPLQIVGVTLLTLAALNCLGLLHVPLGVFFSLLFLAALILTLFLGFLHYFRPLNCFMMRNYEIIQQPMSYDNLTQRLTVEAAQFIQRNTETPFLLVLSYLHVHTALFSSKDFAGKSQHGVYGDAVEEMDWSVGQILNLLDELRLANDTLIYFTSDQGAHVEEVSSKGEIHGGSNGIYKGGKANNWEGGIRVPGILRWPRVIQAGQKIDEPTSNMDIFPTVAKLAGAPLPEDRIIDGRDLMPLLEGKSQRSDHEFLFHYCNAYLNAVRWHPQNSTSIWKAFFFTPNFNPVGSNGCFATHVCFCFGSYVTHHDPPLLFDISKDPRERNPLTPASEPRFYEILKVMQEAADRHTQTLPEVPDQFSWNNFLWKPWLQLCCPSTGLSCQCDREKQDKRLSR
Assay: STS inhibition in placental microsomes
Format: biochemical
Set-up: a placental microsomal preparation from a sulfatase-positive human placenta from a normal term pregnancy; from tissue; host or cells: human placenta (microsomal preparation)
Conditions: 10 μM inhibitor; 20 μM E1S
Kindly state inhibition at 10 µM for each of the entries shown.
Expressed in %, but write only the number.

**Query** Record Cc1c(CCc2ccccc2)c(=O)oc2cc(OS(N)(=O)=O)ccc12 [compound 42] : what is its inhibition at 10 µM with steroid sulfatase (STS) (Homo sapiens)?
**Result** 100

**Query** Record CCCCCCCCCCc1c(C)c2ccc(OS(N)(=O)=O)cc2oc1=O [compound 33, 3-Decyl-4-methylcoumarin-7-O-sulfamate] : what is its inhibition at 10 µM with steroid sulfatase (STS) (Homo sapiens)?
**Result** 94

**Query** Record CCCCCCCCCCCCc1cc(=O)oc2cc(OS(N)(=O)=O)ccc12 [compound 17, 4-Dodecylcoumarin-7-O-sulfamate] : what is its inhibition at 10 µM with steroid sulfatase (STS) (Homo sapiens)?
**Result** 96

====

Molecular target: steroid sulfatase (STS) (Homo sapiens)
Assay: STS inhibition in placental microsomes
Format: biochemical
Design: a placental microsomal preparation from a sulfatase-positive human placenta from a normal term pregnancy; from tissue; host or cells: human placenta (microsomal preparation)
Conditions: 0.01 μM inhibitor; 20 μM E1S
Returns TRUE if the recorded inhibition at 0.01 µM is greater than or equal to 9%, and FALSE otherwise.

**Query** Answer whether inhibition at 0.01 µM of NS(=O)(=O)Oc1ccc2c(CCc3ccccc3)cc(=O)oc2c1 [compound 24, 4-(2-Phenylethyl)coumarin-7-O-sulfamate] is greater than or equal to 9%.
**Result** FALSE

**Query** Answer whether inhibition at 0.01 µM of Cc1c(-c2ccccc2)c(=O)oc2cc(OS(N)(=O)=O)ccc12 [compound 40, 4-Methyl-3-phenylcoumarin-7-O-sulfamate] is greater than or equal to 9%.
**Result** FALSE

**Query** Answer whether inhibition at 0.01 µM of CCCCCCCCCc1cc(=O)oc2cc(OS(N)(=O)=O)ccc12 [compound 14, 4-Nonylcoumarin-7-O-sulfamate] is greater than or equal to 9%.
**Result** TRUE

**Query** Answer whether inhibition at 0.01 µM of CCCCc1cc(=O)oc2cc(OS(N)(=O)=O)ccc12 [compound 9, 4-Butylcoumarin-7-O-sulfamate] is greater than or equal to 9%.
**Result** TRUE

**Query** Answer whether inhibition at 0.01 µM of CCCCCCCCCCCCCc1cc(=O)oc2cc(OS(N)(=O)=O)ccc12 [compound 18, 4-Tridecylcoumarin-7-O-sulfamate] is greater than or equal to 9%.
**Result** FALSE

**Query** Answer whether inhibition at 0.01 µM of CCCCCCCc1cc(=O)oc2cc(OS(N)(=O)=O)ccc12 [compound 12, 4-Heptylcoumarin-7-O-sulfamate] is greater than or equal to 9%.
**Result** FALSE

**Query** Answer whether inhibition at 0.01 µM of NS(=O)(=O)Oc1ccc2c(Cc3ccccc3)cc(=O)oc2c1 [compound 23, 4-Benzylcoumarin-7-O-sulfamate] is greater than or equal to 9%.
**Result** FALSE

**Query** Answer whether inhibition at 0.01 µM of CCCCCCc1c(C)c2ccc(OS(N)(=O)=O)cc2oc1=O [compound 29, 3-Hexyl-4-methylcoumarin-7-O-sulfamate] is greater than or equal to 9%.
**Result** TRUE

**Query** Answer whether inhibition at 0.01 µM of Cc1c(Cc2ccccc2)c(=O)oc2cc(OS(N)(=O)=O)ccc12 [compound 41, 3-Benzyl-4-methylcoumarin-7-O-sulfamate] is greater than or equal to 9%.
**Result** TRUE

**Query** Answer whether inhibition at 0.01 µM of CCCCCc1c(C)c2ccc(OS(N)(=O)=O)cc2oc1=O [compound 28, 4-Methyl-3-pentylcoumarin-7-O-sulfamate] is greater than or equal to 9%.
**Result** TRUE

**Query** Answer whether inhibition at 0.01 µM of CCCCCCCCCc1c(C)c2ccc(OS(N)(=O)=O)cc2oc1=O [compound 32, 4-Methyl-3-nonylcoumarin-7-O-sulfamate] is greater than or equal to 9%.
**Result** TRUE

**Query** Answer whether inhibition at 0.01 µM of CCCCCCCCCCCc1cc(=O)oc2cc(OS(N)(=O)=O)ccc12 [compound 16, 4-Undecylcoumarin-7-O-sulfamate] is greater than or equal to 9%.
**Result** FALSE
